target: human Kv1.1 (human) (UniProt Q09470); assay: cell-based or functional assay
Sequence (Q09470 whole entry): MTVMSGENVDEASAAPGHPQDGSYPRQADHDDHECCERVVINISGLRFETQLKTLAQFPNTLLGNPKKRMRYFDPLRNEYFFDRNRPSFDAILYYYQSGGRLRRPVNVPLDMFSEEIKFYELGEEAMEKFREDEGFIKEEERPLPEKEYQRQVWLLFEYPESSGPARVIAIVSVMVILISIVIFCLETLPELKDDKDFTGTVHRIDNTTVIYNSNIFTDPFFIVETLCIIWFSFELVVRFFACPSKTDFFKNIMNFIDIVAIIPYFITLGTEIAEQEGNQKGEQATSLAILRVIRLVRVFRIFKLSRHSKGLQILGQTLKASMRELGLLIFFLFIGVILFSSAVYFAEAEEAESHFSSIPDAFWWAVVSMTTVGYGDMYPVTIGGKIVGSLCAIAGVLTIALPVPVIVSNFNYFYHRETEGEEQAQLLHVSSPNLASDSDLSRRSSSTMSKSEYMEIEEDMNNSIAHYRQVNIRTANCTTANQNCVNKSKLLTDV
experimental.endpoint: Kv1.1 IC50, QPatch patch clamp (nM)
Numbers only, in nM.

// known answers, use as guide
>>> observed("KB_A12_ShK (antibody, V domains shown) VH: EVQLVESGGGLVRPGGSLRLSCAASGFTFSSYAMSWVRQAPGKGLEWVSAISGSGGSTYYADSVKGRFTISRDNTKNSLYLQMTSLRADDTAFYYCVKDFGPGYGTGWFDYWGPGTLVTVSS VL: NWYQQLPGKAPKLLIYAAGRRSCIDTIPKSRCTAFQCKHSMKYRLSFCRKTCGTCANSGVSDRFSAAKSGTSASLAINGLRSEDEADYYCAAWDDSLNGYVFGTGTKLTVLG")
40
>>> observed("KB_A12_Vm24 (antibody, V domains shown) VH: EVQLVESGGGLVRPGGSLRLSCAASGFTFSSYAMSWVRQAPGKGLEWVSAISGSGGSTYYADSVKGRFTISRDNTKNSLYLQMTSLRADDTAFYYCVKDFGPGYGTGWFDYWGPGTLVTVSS VL: QSVLTQPPSVSEAPRQRVTITCSGSSSNIGNNAVNWYQQLPGKAPKLLIYAAGRAAAISCVGSPECPPKCRAQGCKNGKCMNRKCKCYYCANSGVSDRFSAAKSGTSASLAINGLRSEDEADYYCAAWDDSLNGYVFGTGTKLTVLG")
1220
>>> observed("KB_A12_KTX (antibody) VH: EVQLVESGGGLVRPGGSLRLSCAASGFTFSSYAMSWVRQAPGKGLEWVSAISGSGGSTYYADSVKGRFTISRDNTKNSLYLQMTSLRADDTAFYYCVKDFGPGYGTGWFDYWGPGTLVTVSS VL: QSVLTQPPSVSEAPRQRVTITCSGSSSNIGNNAVNWYQQLPGKAPKLLIYAAGRGVEINVKCSGSPQCLKPCKDAGMRFGKCMNRKCHCTPKANSGVSDRFSAAKSGTSASLAINGLRSEDEADYYCAAWDDSLNGYVFGTGTKLTVLGQP")
4800
>>> observed("KB_A12_ADWX1 short (antibody, V domains shown) VH: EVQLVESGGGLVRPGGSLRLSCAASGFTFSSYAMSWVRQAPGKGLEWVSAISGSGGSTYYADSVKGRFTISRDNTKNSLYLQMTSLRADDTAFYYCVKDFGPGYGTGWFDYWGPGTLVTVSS VL: NWYQQLPGKAPKLLIYAAGRVKCKHSRQCLKPCKDAGMRFGKCTNGKCHCTPKANSGVSDRFSAAKSGTSASLAINGLRSEDEADYYCAAWDDSLNGYVFGTGTKLTVLG")
1400

Entry under review: KB_A12_Odk2 short (antibody, V domains shown) VH: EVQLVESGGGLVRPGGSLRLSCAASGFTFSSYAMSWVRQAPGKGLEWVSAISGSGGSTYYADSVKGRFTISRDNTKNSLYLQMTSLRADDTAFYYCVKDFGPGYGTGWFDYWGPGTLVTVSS VL: NWYQQLPGKAPKLLIYAAGRVKCRGSPQCIQPCKDAGMRFGKCMNGKCHCTPKANSGVSDRFSAAKSGTSASLAINGLRSEDEADYYCAAWDDSLNGYVFGTGTKLTVLG . Reported Kv1.1 IC50, QPatch patch clamp?
380
